Target: WT GLIC (Gloeobacter violaceus)
Construct: expressed in transfected cells; host or cells: tk-ts13 cells, GLIC DNA in pMT3 vector
Sequence (Q7NDN8 44-359): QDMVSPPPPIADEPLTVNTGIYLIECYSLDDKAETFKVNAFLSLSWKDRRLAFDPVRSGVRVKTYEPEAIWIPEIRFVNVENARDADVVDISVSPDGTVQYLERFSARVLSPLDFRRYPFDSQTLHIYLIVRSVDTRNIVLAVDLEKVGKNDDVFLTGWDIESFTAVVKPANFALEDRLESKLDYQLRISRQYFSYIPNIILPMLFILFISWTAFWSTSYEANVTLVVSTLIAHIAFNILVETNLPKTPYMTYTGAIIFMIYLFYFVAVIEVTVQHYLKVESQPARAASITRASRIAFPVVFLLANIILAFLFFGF
Assay: Whole-cell patch-clamp, protocol with pre-stimulation at low pHo, WT GLIC expressed in tk-ts13 cells
Type: cell-based
Settings: IC50 (from individual cells), pHo 5.0, mean ± SD
QUANTITY_KIND: pIC50
By convention, pIC50 is the negative base-10 log of a molar concentration.

Give the measured pIC50 of CCCCC(=O)O .
3.54

----------
biological target: WT GLIC (Gloeobacter violaceus, UniProt Q7NDN8); construct: expressed in transfected cells; host or cells: tk-ts13 cells, GLIC DNA in pMT3 vector; assay: Whole-cell patch-clamp, protocol with pre-stimulation at low pHo, WT GLIC expressed in tk-ts13 cells; format: cell-based; settings: pHo 5.5, 10 cells; read-out: IC50 (sigmoid fit of the mean value)
QUANTITY_KIND: IC50 (µM)
Output spec: scalar in µM, unitless text.

Please state recorded IC50 (tested on WT GLIC (Gloeobacter violaceus, UniProt Q7NDN8)) of CC(=O)O
136

----------
target: WT GLIC (Gloeobacter violaceus); construct: expressed in transfected cells; host or cells: tk-ts13 cells, GLIC DNA in pMT3 vector; assay: Whole-cell patch-clamp, protocol with pre-stimulation at low pHo, WT GLIC expressed in tk-ts13 cells; type: cell-based; conditions: pHo 5.5, mean ± SD; read-out: IC50 (from individual cells)
QUANTITY_KIND: pIC50
Entry type: numeric. Quantity: pIC50, the -log10 of concentration in molar units.

Can you share its pIC50? I mean this compound: CCCC(=O)O [BUTYR, Butanoic acid]
3.82

Which pIC50 value belongs to CC(=O)O [ACET, Ethanoic acid] ?
3.89

Which measured pIC50 value corresponds to CCC(=O)O [PROPION, Propanoic acid] ?
3.69
